# composite z-score listing for each entry below
Target: Follistatin (Homo sapiens)
Assay: follistatin binders on small-molecule microarrays, primary screen, biochemical, small-molecule microarray, 635/667 nm fluorescence (AID 1132)
Conditions: FST binding, 635 nm fluorescence, higher = more signal
Reply with the value as a number alone.

Observe how each entry below is paired with its result.
COC(=O)C[C@H]1O[C@]2(C(=O)N(C)c3ccccc32)[C@@H](C)[C@@H]1[Si](C)(C)c1ccccc1 ... 1.05
C=CCNC(=O)[C@H]1[C@@H]2C(=O)O[C@@H](c3ccccc3)[C@@H](c3ccccc3)N2[C@@H](c2ccc(OCCO)cc2)[C@]12C(=O)Nc1ccc(C#Cc3ccc(OC)cc3)cc12 ... 1.37
COCCCNC(=O)[C@@]1(Cc2ccccc2I)c2ccccc2C(=O)N(Cc2ccccc2OC)[C@H]1c1ccc(CO)cc1 ... -0.268
C=CCC(OC(C)=O)[C@@H]1[C@@H](N(Cc2cccc3ccccc23)C(=O)c2ccc(C)cc2)c2cc(OCCCO)ccc2N1C(=O)Cc1ccc2ccccc2c1 (stereo partly specified) ... 0.142

Problem: # get_value(readout= composite z-score, system= Follistatin (Homo sapiens)) for `O=C1O[C@H](c2ccccc2)[C@H](c2ccccc2)N2[C@H]1[C@@H](C(=O)O)[C@]1(C(=O)Nc3ccc(C#CC4(O)CCCCCC4)cc31)[C@H]2c1ccccc1OCCO`
Result: 0.729

Problem: Provide the documented composite z-score with Follistatin (Homo sapiens) as the system for `COC(=O)[C@@]1(Cc2ccc(F)cc2)[C@H]2c3cc(C(=O)N(C)C)n(CCF)c3C[C@H]2CN1C(=O)c1ccccc1`
Result: -0.0051
